Test target: human F508del CFTR (Homo sapiens, UniProt P13569, DEL508-508)
Construct: expressed in transfected cells; host or cells: Fisher Rat Thyroid (FRT) cells
Sequence (P13569 with tags, fused parts or gaps DEL508-508): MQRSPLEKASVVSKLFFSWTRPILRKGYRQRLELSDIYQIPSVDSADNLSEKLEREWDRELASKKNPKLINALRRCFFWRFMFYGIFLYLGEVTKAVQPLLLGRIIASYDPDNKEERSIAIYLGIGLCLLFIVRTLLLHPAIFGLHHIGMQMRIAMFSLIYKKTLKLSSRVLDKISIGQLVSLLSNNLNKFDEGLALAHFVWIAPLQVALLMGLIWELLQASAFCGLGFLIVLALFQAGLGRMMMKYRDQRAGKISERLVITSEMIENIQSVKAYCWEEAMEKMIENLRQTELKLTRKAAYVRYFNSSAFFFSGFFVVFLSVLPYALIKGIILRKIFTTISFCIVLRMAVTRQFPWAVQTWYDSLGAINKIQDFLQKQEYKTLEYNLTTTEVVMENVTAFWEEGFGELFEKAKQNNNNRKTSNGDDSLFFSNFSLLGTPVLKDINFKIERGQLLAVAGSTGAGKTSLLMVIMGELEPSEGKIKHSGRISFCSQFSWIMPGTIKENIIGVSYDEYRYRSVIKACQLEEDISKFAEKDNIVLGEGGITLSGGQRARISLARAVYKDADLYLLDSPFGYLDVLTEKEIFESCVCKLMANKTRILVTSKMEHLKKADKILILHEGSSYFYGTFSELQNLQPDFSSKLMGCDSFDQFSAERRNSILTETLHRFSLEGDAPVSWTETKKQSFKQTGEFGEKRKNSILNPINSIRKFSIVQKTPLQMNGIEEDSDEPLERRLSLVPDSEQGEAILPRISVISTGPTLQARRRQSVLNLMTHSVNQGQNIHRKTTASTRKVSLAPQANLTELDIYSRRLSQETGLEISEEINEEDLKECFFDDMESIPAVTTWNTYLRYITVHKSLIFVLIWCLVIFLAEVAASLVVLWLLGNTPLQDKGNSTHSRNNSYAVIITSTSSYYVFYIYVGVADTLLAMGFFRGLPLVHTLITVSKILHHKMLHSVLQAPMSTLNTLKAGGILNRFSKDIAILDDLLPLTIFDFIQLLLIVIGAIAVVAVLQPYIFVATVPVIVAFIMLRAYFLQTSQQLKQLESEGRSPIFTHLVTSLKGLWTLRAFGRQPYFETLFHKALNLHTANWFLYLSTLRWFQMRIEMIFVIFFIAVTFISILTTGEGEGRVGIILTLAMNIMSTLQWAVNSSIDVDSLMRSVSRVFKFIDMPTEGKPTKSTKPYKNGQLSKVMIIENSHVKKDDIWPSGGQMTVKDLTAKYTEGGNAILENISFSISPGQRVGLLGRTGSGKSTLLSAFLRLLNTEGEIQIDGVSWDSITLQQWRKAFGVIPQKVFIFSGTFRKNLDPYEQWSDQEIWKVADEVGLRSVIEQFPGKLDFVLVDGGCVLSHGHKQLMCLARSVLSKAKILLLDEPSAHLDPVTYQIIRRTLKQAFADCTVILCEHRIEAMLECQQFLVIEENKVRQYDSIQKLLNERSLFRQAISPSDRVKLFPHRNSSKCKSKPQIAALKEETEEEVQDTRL
Test summary: CFTR-YFP High Throughput Assay
Type: cell-based
Condition context: EMax normalized to the positive control; FRT cells expressing human F508del CFTR and YFP; read-out: % Efficacy
Recorded metric: Emax

| Molecule | Meas value |
| --- | --- |
| CCc1ccc(N(CC)C(=O)Cn2nc(Cc3cccnc3)c3cc(Cl)c(Cl)cc3c2=O)cc1 [Example 38] | 30 to 80% |

Enquiry: Field request: Emax | item: CCN(C(=O)c1nn(-c2ccncc2)c(=O)c2c1c1ccccc1n2C)c1ccccc1 [Example 169]
Return: 30 to 80%

Enquiry: Field request: Emax | item: CCOC(=O)c1ccc2c(-c3cccc(F)c3)nn(CC(=O)N(C)c3ccc4nc(C)oc4c3)c(=O)c2c1 [Example 67]
Return: 30 to 80%

====

Test target: human F508del CFTR (Homo sapiens, UniProt P13569, DEL508-508)
Test summary: CFTR-YFP High Throughput Assay
Condition context: FRT cells expressing human F508del CFTR and YFP
pEC50: −log10 of the molar value.
Recorded metric: pEC50

Worked cases, answers included:
| Test smiles | pEC50 |
| --- | --- |
| CCOC(=O)c1ccc2c(=O)n(CC(=O)N(C)c3ccc4nc(C)oc4c3)nc(-c3cccc(Cl)c3)c2c1 | > 5.00 |
| COc1ccc2c(-c3cccc(Cl)c3)nn(CC(=O)C3(c4ccc5c(c4)OC(F)(F)O5)CC3)c(=O)c2c1 | > 5.00 |
| CC(C)N(C(=O)c1nn(-c2cnc3ccccc3c2)c(=O)c2c1c1ccccc1n2C)c1ccccc1 | < 4.70 |

Enquiry: Field request: pEC50 | item: `CCc1ccc(N(CC)C(=O)Cn2nc(-c3cccc(C(N)=O)c3)c3ccccc3c2=O)cc1`
Return: 4.70 to 5.00

Enquiry: Field request: pEC50 | item: `CC(C)n1nc(C(=O)N2CCCCC2)c2c3ccccc3n(C)c2c1=O`
Return: > 5.00

Enquiry: Field request: pEC50 | item: `COc1ccc2c(c1)c1c(=O)n(CC(=O)N(C)c3ccc4nc(C)oc4c3)ncc1n2Cc1ccc(F)cc1`
Return: > 5.00

Enquiry: Field request: pEC50 | item: `COc1ccc2c(c1)c1c(=O)n(CC(=O)N(C)c3ccc4nc(C)oc4c3)ncc1n2Cc1ccc(C#N)cc1`
Return: > 5.00

Enquiry: Field request: pEC50 | item: `CCc1ccc(N(CC)C(=O)Cn2nc(-c3cccc(N)c3)c3ccccc3c2=O)cc1`
Return: > 5.00

Enquiry: Field request: pEC50 | item: `COc1ccc2c(-c3cccc(C#N)c3)nn(CC(=O)N(C)c3ccc4nc(C)oc4c3)c(=O)c2c1`
Return: > 5.00

Enquiry: Field request: pEC50 | item: `CCN(C(=O)c1nn(-c2ccc(C)cc2)c(=O)c2c1c1c(C)cccc1n2C)c1ccccc1`
Return: < 4.70

====

# EC50 listing for each entry below
Test target: human F508del CFTR (Homo sapiens, UniProt P13569, DEL508-508)
Test summary: CFTR-YFP High Throughput Assay
Condition context: FRT cells expressing human F508del CFTR and YFP

Worked cases, answers included:
| Compound | Recorded metric | Meas value |
| --- | --- | --- |
| CCN(C(=O)Cn1nc(C(=O)N(CC)c2ccccc2C#N)c2ccccc2c1=O)c1ccc2c(c1)OC(F)(F)O2 [Example 129] | EC50 | 10 to 20 µM |
| CCN(C(=O)c1nn(C2CCN(S(=O)(=O)c3ccc4c(c3)OC(F)(F)O4)CC2)c(=O)c2c1c1ccccc1n2C)c1ccccc1 [Example 200] | EC50 | < 10 µM |
| CCN(C(=O)c1nn(-c2ncccn2)c(=O)c2c1c1ccccc1n2C)c1ccccc1 [Example 171] | EC50 | > 20 µM |
| CCN(C(=O)Cn1nc(-c2ccc(S(N)(=O)=O)cc2)c2ccc(OC)cc2c1=O)c1ccc2nc(C)oc2c1 [Example 80] | EC50 | 10 to 20 µM |
| CCN(C(=O)c1nn(CCOC)c(=O)c2c1c1ccccc1n2C)c1ccccc1 [Example 227] | EC50 | < 10 µM |
| CCc1ccc(N(CC)C(=O)Cn2nc(-c3cccc4c3OCO4)c3ccccc3c2=O)cc1 [Example 10] | EC50 | > 20 µM |
| Cc1ccc(-n2nc(CN3CCOCC3)c3c4ccccc4n(C)c3c2=O)cc1 [Example 243] | EC50 | < 10 µM |
| CCN(C(=O)c1nn(-c2ccc(C)cc2)c(=O)c2c1c1ccc(Cl)cc1n2C)c1ccccc1 [Example 166] | EC50 | < 10 µM |

Enquiry: Reported EC50 for human F508del CFTR (Homo sapiens, UniProt P13569, DEL508-508), given Cn1c2ccccc2c2c(-c3cccc(C#N)c3)nn(C3CCCCC3)c(=O)c21 [Example 244] ?
Return: < 10 µM

Enquiry: Reported EC50 for human F508del CFTR (Homo sapiens, UniProt P13569, DEL508-508), given CCN(C(=O)c1nn(CC(C)(C)C)c(=O)c2c1c1ccccc1n2C)c1ccccc1 [Example 217] ?
Return: > 20 µM

Enquiry: Reported EC50 for human F508del CFTR (Homo sapiens, UniProt P13569, DEL508-508), given CCN(C(=O)Cn1nc(-c2cccnc2)c2ccccc2c1=O)c1ccc2c(c1)OC(F)(F)O2 [Example 24] ?
Return: < 10 µM

Enquiry: Reported EC50 for human F508del CFTR (Homo sapiens, UniProt P13569, DEL508-508), given CC(C)n1nc(-c2cccc(C#N)c2)c2c3ccccc3n(C)c2c1=O [Example 240] ?
Return: > 20 µM

Enquiry: Reported EC50 for human F508del CFTR (Homo sapiens, UniProt P13569, DEL508-508), given CCN(C(=O)Cn1ncc2c(c1=O)c1ccccc1n2CC#N)c1ccc2c(c1)OC(F)(F)O2 [Example 139] ?
Return: 10 to 20 µM

Enquiry: Reported EC50 for human F508del CFTR (Homo sapiens, UniProt P13569, DEL508-508), given CCN(C(=O)c1nn(-c2ccc(C)cc2)c(=O)c2c1c1sc(C)cc1n2C)c1ccccc1F [Example 247] ?
Return: > 20 µM

Enquiry: Reported EC50 for human F508del CFTR (Homo sapiens, UniProt P13569, DEL508-508), given CCN(C(=O)Cn1nc(-c2cccc(C#N)c2)c2ccc(OC)cc2c1=O)c1ccc2c(c1)OC(F)(F)O2 [Example 75] ?
Return: < 10 µM

Enquiry: Reported EC50 for human F508del CFTR (Homo sapiens, UniProt P13569, DEL508-508), given CCN(C(=O)c1nn(CC2CCCO2)c(=O)c2c1c1ccccc1n2C)c1ccccc1 (stereo not shown) [Example 216] ?
Return: < 10 µM
